# System: Proteasome Macropain subunit (Homo sapiens)
# Procedure summary: Inhibition of human 20S proteosome beta2 subunit using Bz-VGR-AMC as substrate preincubated for 30 mins with compound prepared under 365 nm UV light condition for 1 hrs followed by substrate addition and measured after 12 hrs by fluorescence plate reader analysis
# Stated conditions: time 12.5 hrs
Activity calls are given as the source filed them. The rule behind the calls is not given here.
Result type: inhibition

| Structure string | Result |
| --- | --- |
| Cc1cc(C)cc(/N=N\c2cccc(C(=O)N[C@@H](CC(C)C)C(=O)N[C@@H](CC(C)C)C(=O)N[C@H](/C=C/S(C)(=O)=O)CC(C)C)c2)c1 | inactive |
| Cc1cc(C)cc(N=Nc2cccc(C(=O)N[C@@H](Cc3ccccc3)C(=O)N[C@@H](CC(C)C)C(=O)N[C@H](C=CS(C)(=O)=O)CC(C)C)c2)c1 | inactive |
| Cc1cc(C)cc(/N=N\c2cccc(C(=O)N[C@H](C(=O)N[C@@H](Cc3ccccc3)C(=O)N[C@H](/C=C/S(C)(=O)=O)CC(C)C)C(C)C)c2)c1 | inactive |
| Cc1cc(C)cc(/N=N\c2cccc(C(=O)N[C@@H](Cc3c[nH]c4ccccc34)C(=O)N[C@@H](CC(C)C)C(=O)N[C@H](/C=C/S(C)(=O)=O)CC(C)C)c2)c1 | inactive |

* * *

# System: MCF7
# Procedure summary: Cytotoxicity against human MCF7 cells assessed as reduction in cell viability incubated for 48 hrs with compound prepared under 365 nm UV light condition for 1 hrs by CellTIter blue reagent based fluorescence plate reader analysis
Please respond with reported pIC50 for every item in the list.
Answers are plain numbers, as −log10 of the molar value.

Worked cases, pIC50 given:
| Molecule | System | Readout number |
| --- | --- | --- |
| CC(C)C[C@H](NC(=O)[C@H](Cc1ccc(/N=N\c2ccccc2)cc1)NC(=O)OC(C)(C)C)B1OC2C[C@@H]3C[C@@H](C3(C)C)[C@@]2(C)O1 (stereo partly specified) | MCF7 | 4.55 |
| Cc1cc(C)cc(/N=N\c2cccc(C(=O)N[C@H](C(=O)N[C@@H](Cc3ccccc3)C(=O)N[C@H](/C=C/S(C)(=O)=O)CC(C)C)C(C)C)c2)c1 | MCF7 | 5.65 |

Look up pIC50 for the entries below, preserving their order.
1. Cc1cc(C)cc(N=Nc2cccc(C(=O)N[C@@H](Cc3ccccc3)C(=O)N[C@@H](CC(C)C)C(=O)N[C@H](C=CS(C)(=O)=O)CC(C)C)c2)c1
2. Cc1cc(C)cc(/N=N\c2cccc(C(=O)N[C@@H](CC(C)C)C(=O)N[C@@H](CC(C)C)C(=O)N[C@H](/C=C/S(C)(=O)=O)CC(C)C)c2)c1
3. Cc1cc(C)cc(/N=N\c2cccc(C(=O)N[C@@H](Cc3c[nH]c4ccccc34)C(=O)N[C@@H](CC(C)C)C(=O)N[C@H](/C=C/S(C)(=O)=O)CC(C)C)c2)c1
4. CC(C)CC(NC(=O)[C@H](Cc1ccccc1)NC(=O)c1ccc(/N=N\c2ccccc2)cc1)B(O)O (stereo partly specified)

1: 5.12; 2: 5.36; 3: 5.26; 4: 5.17

* * *

# System: Proteasome Macropain subunit (Homo sapiens)
# Procedure summary: Inhibition of human 20S proteosome beta2 subunit using Bz-VGR-AMC as substrate preincubated for 30 mins with compound prepared under dark condition followed by substrate addition and measured after 12 hrs by fluorescence plate reader analysis
# Stated conditions: time 12.5 hrs
The source made the active and inactive calls. No cut-off for these calls is given here.

| Structure string | inhibition |
| --- | --- |
| Cc1cc(C)cc(/N=N/c2cccc(C(=O)N[C@@H](Cc3c[nH]c4ccccc34)C(=O)N[C@@H](CC(C)C)C(=O)N[C@H](/C=C/S(C)(=O)=O)CC(C)C)c2)c1 | inactive |
| Cc1cc(C)cc(/N=N/c2cccc(C(=O)N[C@@H](CC(C)C)C(=O)N[C@@H](CC(C)C)C(=O)N[C@H](/C=C/S(C)(=O)=O)CC(C)C)c2)c1 | inactive |
| Cc1cc(C)cc(/N=N/c2cccc(C(=O)N[C@@H](Cc3ccccc3)C(=O)N[C@@H](CC(C)C)C(=O)N[C@H](/C=C/S(C)(=O)=O)CC(C)C)c2)c1 | inactive |
| Cc1cc(C)cc(/N=N/c2cccc(C(=O)N[C@H](C(=O)N[C@@H](Cc3ccccc3)C(=O)N[C@H](/C=C/S(C)(=O)=O)CC(C)C)C(C)C)c2)c1 | inactive |

* * *

# Test system: A549
# Procedure summary: Cytotoxicity against human A549 cells assessed as reduction in cell viability incubated for 48 hrs with compound prepared under dark condition by CellTIter blue reagent based fluorescence plate reader analysis
# Type: functional
# Stated conditions: A549, 48 h
Please respond with reported pIC50 for every item in the list.
Numbers only, as −log10 of the molar value.

Previously resolved entries follow.
| Compound | pIC50 |
| --- | --- |
| Cc1cc(C)cc(/N=N/c2cccc(C(=O)N[C@@H](Cc3ccccc3)C(=O)N[C@@H](CC(C)C)C(=O)N[C@H](/C=C/S(C)(=O)=O)CC(C)C)c2)c1 | 5.59 |
| Cc1cc(C)cc(/N=N/c2cccc(C(=O)N[C@@H](Cc3c[nH]c4ccccc34)C(=O)N[C@@H](CC(C)C)C(=O)N[C@H](/C=C/S(C)(=O)=O)CC(C)C)c2)c1 | 5.70 |
| Cc1cc(C)cc(/N=N/c2cccc(C(=O)N[C@H](C(=O)N[C@@H](Cc3ccccc3)C(=O)N[C@H](/C=C/S(C)(=O)=O)CC(C)C)C(C)C)c2)c1 | 4.34 |
| CC(C)C[C@H](NC(=O)[C@H](Cc1ccc(/N=N/c2ccccc2)cc1)NC(=O)OC(C)(C)C)B1OC2C[C@@H]3C[C@@H](C3(C)C)[C@@]2(C)O1 (stereo not given in full) | 4.28 |

Proceed to the following item.
Query: pIC50; subject: Cc1cc(C)cc(/N=N/c2cccc(C(=O)N[C@@H](CC(C)C)C(=O)N[C@@H](CC(C)C)C(=O)N[C@H](/C=C/S(C)(=O)=O)CC(C)C)c2)c1 5.59
